Cited source for all entries: patent US20070128217A1

# Test system: control sera (pooled serum of ten healthy LUMC hospital workers; commercial negative donor pooled serum from the Dutch bloodbank)
# Format: binding, human
# Parameters: unit not given here
Field: Binding of Control serum Blood-bank to linear peptides. Provide a value for each of the sequences that follow.
One number for each entry.

Consider the following illustrative entries.
- ENTRY_SEQUENCE: "ASGGGETALALLLLD"
  NUMERIC_READOUT: 0.8
- ENTRY_SEQUENCE: "GTRNPNNNAATVLQL"
  NUMERIC_READOUT: 0.8
- ENTRY_SEQUENCE: "IVWVATEGALNTPKD"
  NUMERIC_READOUT: 0.8
- ENTRY_SEQUENCE: "GTYEGNSPFHPLADN"
  NUMERIC_READOUT: 0.7
- ENTRY_SEQUENCE: "YDANYFVCWHTHNYD"
  NUMERIC_READOUT: 0.7
- ENTRY_SEQUENCE: "KEGIVWVATEGALNT"
  NUMERIC_READOUT: 0.7

Provide the reported Binding of Control serum Blood-bank to linear peptides of each entry below, same order.
1. LFIRQEEVQQELYSP
2. TMVQTCTPNVTINCQ
3. ASLPFGWLVIGVAFL
4. RARSVSPKLFIRQEE
5. MASGGGETALALLLL
6. VQQELYSPLFLIVAA
7. MCKYTQSTALQELLI

Solution:
[0.7, 0.7, 0.6, 0.6, 0.7, 0.6, 0.9]

---

# Tested on: recombinant human anti-SARS-CoV antibody 03-018
# Assay type: binding
# Parameters: unit not given here
VALUE_TYPE: Binding of antibody 03-018 to looped/cyclic peptides of the N protein of SARS-CoV Urbani
One number for each entry.

Consider the following illustrative entries.
- ENTRY_SEQUENCE: "GGRNGARPKQRRPQG"
  NUMERIC_READOUT: 0.2
- ENTRY_SEQUENCE: "RFPRGQGVPINTNSG"
  NUMERIC_READOUT: 0.2
- ENTRY_SEQUENCE: "KKQPTVTLLPAADMD"
  NUMERIC_READOUT: 0.2
- ENTRY_SEQUENCE: "VTQAFGRRGPEQTQG"
  NUMERIC_READOUT: 0.2
- ENTRY_SEQUENCE: "QAFGRRGPEQTQGNF"
  NUMERIC_READOUT: 0.2
- ENTRY_SEQUENCE: "LTYHGAIKLDDKDPQ"
  NUMERIC_READOUT: 0.2

Provide the reported Binding of antibody 03-018 to looped/cyclic peptides of the N protein of SARS-CoV Urbani of each entry below, same order.
1. QHGKEELRFPRGQGV
2. KRTATKQYNVTQAFG
3. QPLPQRQKKQPTVTL
4. GKEELRFPRGQGVPI

Solution:
1: 0.2; 2: 0.2; 3: 0.3; 4: 0.3

---

# System: antibodies in sera from SARS patients (sera 1a, 1b, 2, 6, 37, 62, London, SARS-yellow, SARS-green)
# Format: binding, human
# Set-up: unit not given here
Field: Binding of serum 62 to looped/cyclic peptides of protein N of SARS-CoV Urbani. Provide a value for each of the sequences that follow.
Numbers only.

Consider the following illustrative entries.
- ENTRY_SEQUENCE: "QGVPINTNSGPDDQI"
  NUMERIC_READOUT: 1.0
- ENTRY_SEQUENCE: "YHGAIKLDDKDPQFK"
  NUMERIC_READOUT: 0.3
- ENTRY_SEQUENCE: "LLNKHIDAYKTFPPT"
  NUMERIC_READOUT: 0.3
- ENTRY_SEQUENCE: "QQQQGQTVTKKSAAE"
  NUMERIC_READOUT: 0.2

Continue with the next sequence.
Exercise: If you can, please state the reported Binding of serum 62 to looped/cyclic peptides of protein N of SARS-CoV Urbani value of `SLPYGANKEGIVWVA` .
Solution: 0.6

---

# System: antibodies in sera from SARS patients (sera 1a, 1b, 2, 6, 37, 62, London, SARS-yellow, SARS-green)
# Assay type: binding, human
# Design: unit not given here
Classify by measured Binding of serum 37 to linear peptides of protein N of SARS-CoV Urbani: rule met if it is equal to or exceeds 0.7, rule not met if it is smaller.

As a guide, the following entries are already answered.
- ENTRY_SEQUENCE: "YGANKEGIVWVATEG"
  ANSWER_LABEL: "rule met"
- ENTRY_SEQUENCE: "ALTQHGKEELRFPRG"
  ANSWER_LABEL: "rule met"
- ENTRY_SEQUENCE: "HGAIKLDDKDPQFKD"
  ANSWER_LABEL: "rule met"

Exercise: Given `QRSAPRITFGGPTDS` , state whether its Binding of serum 37 to linear peptides of protein N of SARS-CoV Urbani is at least 0.7.
Solution: rule not met

Exercise: Given `YRRATRRVRGGDGKM` , state whether its Binding of serum 37 to linear peptides of protein N of SARS-CoV Urbani is at least 0.7.
Solution: rule met

Exercise: Given `KMKELSPRWYFYYLG` , state whether its Binding of serum 37 to linear peptides of protein N of SARS-CoV Urbani is at least 0.7.
Solution: rule not met

Exercise: Given `YKHWPQIAQFAPSAS` , state whether its Binding of serum 37 to linear peptides of protein N of SARS-CoV Urbani is at least 0.7.
Solution: rule met

Exercise: Given `SPRWYFYYLGTGPEA` , state whether its Binding of serum 37 to linear peptides of protein N of SARS-CoV Urbani is at least 0.7.
Solution: rule met

Exercise: Given `NGPQSNQRSAPRITF` , state whether its Binding of serum 37 to linear peptides of protein N of SARS-CoV Urbani is at least 0.7.
Solution: rule met

Exercise: Given `YHGAIKLDDKDPQFK` , state whether its Binding of serum 37 to linear peptides of protein N of SARS-CoV Urbani is at least 0.7.
Solution: rule met

Exercise: Given `LTYHGAIKLDDKDPQ` , state whether its Binding of serum 37 to linear peptides of protein N of SARS-CoV Urbani is at least 0.7.
Solution: rule not met

Exercise: Given `MKELSPRWYFYYLGT` , state whether its Binding of serum 37 to linear peptides of protein N of SARS-CoV Urbani is at least 0.7.
Solution: rule not met

---

Field: Binding of Control Serum Blood-Bank to Looped peptides. Provide a value for each of the sequences that follow.
# Tested on: control sera (pooled serum of ten healthy LUMC hospital workers; commercial negative donor pooled serum from the Dutch bloodbank)
# Assay type: binding, human
# Parameters: unit not given here
One number for each entry.

Provide the reported Binding of Control Serum Blood-Bank to Looped peptides of each entry below, same order.
1. RWQLALYKGFQFICN
2. FTLGSITAQPVKIDN
3. KVSGKGQQQQGQTVT
4. KRWQLALYKGFQFIC

Solution:
1. 0.6
2. 1.6
3. 0.6
4. 0.7

Provide the reported Binding of Control Serum Blood-Bank to Looped peptides of each entry below, same order.
1. ELLIQQWIQFMMSRR
2. MKELSPRWYFYYLGT

Solution:
1. 0.6
2. 0.7

Provide the reported Binding of Control Serum Blood-Bank to Looped peptides of each entry below, same order.
1. TFFIFNKLVKDPPNV
2. QYNVTQAFGRRGPEQ
3. LKTHRMCKYTQSTAL
4. VQQELYSPLFLIVAA
5. VVVHGYFTEVYYQLE
6. LGSITAQPVKIDNAS

Solution:
1: 0.6; 2: 0.8; 3: 0.7; 4: 0.7; 5: 0.4; 6: 0.4

Provide the reported Binding of Control Serum Blood-Bank to Looped peptides of each entry below, same order.
1. RGNSPARMASGGGET
2. KFTTSLSLHKLLQTL

Solution:
1. 0.6
2. 0.5

---

# Test system: rabbit serum obtained by immunizing a rabbit with the SARS-CoV strain Frankfurt 1
# Type: binding
# Set-up: unit not given here
VALUE_TYPE: Binding of a rabbit serum to linear peptides

Provide the reported Binding of a rabbit serum to linear peptides of each entry below, same order.
1. KLVVILRIGTQVLKT
2. ALQELLIQQWIQFMM
3. SEDRHSGVKDYVVVH
4. GSSGVANPAMDPIYD

Solution:
1: 0.5; 2: 0.2; 3: 0.1; 4: 0.1

Provide the reported Binding of a rabbit serum to linear peptides of each entry below, same order.
1. IENATFFIFNKLVKD
2. EAQFLYLYALIYFLQ
3. CKHKKVSTNLCTHSF

Solution:
1: 0.1; 2: 0.1; 3: 0.3

Provide the reported Binding of a rabbit serum to linear peptides of each entry below, same order.
1. IPYNSVTDTIVVTEG
2. LVLKMLHSSSLTSLL
3. HGYFTEVYYQLESTQ
4. QFLYLYALIYFLQCI

Solution:
1. 0.1
2. 0.3
3. 0.1
4. 0.1
